Kindly supply the reported pKd values for the records listed here.
Target: T1, PUF4 RNA-binding domain (Saccharomyces cerevisiae, UniProt P25339 537-888)
T1 sequence: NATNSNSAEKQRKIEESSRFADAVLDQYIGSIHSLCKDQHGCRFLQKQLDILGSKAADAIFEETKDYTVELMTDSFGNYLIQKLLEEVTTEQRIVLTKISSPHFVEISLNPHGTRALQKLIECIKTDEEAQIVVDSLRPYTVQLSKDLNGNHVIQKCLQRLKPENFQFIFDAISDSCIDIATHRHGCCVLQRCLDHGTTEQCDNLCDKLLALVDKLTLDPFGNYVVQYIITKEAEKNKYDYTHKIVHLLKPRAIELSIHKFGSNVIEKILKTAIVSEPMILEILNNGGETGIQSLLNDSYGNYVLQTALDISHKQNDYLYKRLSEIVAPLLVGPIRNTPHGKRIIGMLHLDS
Assay: Mg; RNA-MaP; 20 mM Na-HEPES pH 7.4, 30 mM KOAc, 0.75 mM MgCl2, 0.1% Tween-20, 5% glycerol, 0.1 mg/mL BSA, 2 mM DTT; 25 C; 0.0125-409.6 nM protein
Conditions: tags: N-His6-TEV cleaved; C-SNAP kept, Cy3B-labelled; label: tethered on chip by stalled RNA polymerase
Numbers only, as −log10 of the molar value.

Use these answered entries as a reference point.
>  <Binder>
Ic_S4_P5E.1_K5.1_C5.1_H5.1_A5.1_[A7G]_F5.1_[T9C]_[A10T]_T5.1 (ssRNA) RNA: UUUGACAACUGAUCGUUCUUUCUUGUAUUGUCUUUCUUUCUCGAUCAGUUGUCUUU

>  <Result type>
pKd

>  <Experimental value>
6.87

$$$$
>  <Binder>
ACAAACUGUCUCUUAUUAUUAACAAAC (ssRNA) [Ie_S3_P5E.1_K5.1_C5.1_H5.1_[+2TCTCT]_A5.1_F5.1_T5.1]

>  <Result type>
pKd

>  <Experimental value>
6.29

$$$$
>  <Binder>
ACAAACACUAUAUAUAAAACAAAC (ssRNA) [Id_ii_S3_P3E.3_K3.2_C3.2_[C-2A]_[T-1C]_H3.2_A3.1_F3.1_T3.2_[T9A]]

>  <Result type>
pKd

>  <Experimental value>
5.97

$$$$

For the next question, use this binder.
Task: # return recorded pKd for input UCUCUUCCUGUAUAUUAUAUCUCUU (ssRNA) [Id_ii_S1_P4E.2_K4.1_C4.2_[T-1C]_H4.1_A4.1_F4.1_T4.2_[G10T]_[T11A]]
Output: 9.02
